Where do these numbers come from? They come from paper PMC8762250.

test system: M. tuberculosis; test: High content assay of intracellular M. tuberculosis growth in infected RAW264.7 macrophages; assay type: cell-based, Mycobacterium tuberculosis H37Rv-LP; details: in RAW264.7 macrophages; SAR tables 4-8; listed as 29; read-out: Intracellular Mtb IC50
assayEndpoint: IC50

-- ask Give the measured IC50 of CCc1ccccc1NC(=O)c1c(NC(=O)c2cccc(Cl)c2)sc2c1CCC2 [TPN-0073585] .
-- reply < 5 µM

---

Listed here: items and their measured HepG2 cytotoxicity TC50 Glucose.
tested on: HepG2 cells; assay: HepG2 cytotoxicity (CellTiter-Glo, 72 h); format: cell-based, human; settings: human, 72 h
Marks after values point to notes of the source that are not given here.

Example cases with answers are listed next.
CCOC(=O)c1sc(NC(=O)Cc2c(F)cccc2Cl)nc1C; >100 ^d µM
COc1ccc(C(=O)c2sc(NCc3ccccc3)nc2N)cc1; 52 ± 5.5 ^b µM
CCCOc1ccc(C(=O)Nc2sc(C)c(C)c2C(N)=O)cc1; 83 ± 2.9 ^c µM
CCOc1ccc(NC(=S)Nc2ccccc2)cc1; >100 ^e µM
OCc1cn(-c2ccc(F)cc2)nc1-c1cc(F)c(Cl)cc1Cl; 46 ± 2.8 ^e µM

-- ask Give the measured HepG2 cytotoxicity TC50 Glucose of Cc1c(Cc2ccccc2)sc(NC(=O)c2ccccc2Cl)c1C(N)=O .
-- reply >100 ^b µM

-- ask Give the measured HepG2 cytotoxicity TC50 Glucose of Clc1ccc(Nc2nc(-c3cccs3)cs2)cc1 .
-- reply 35 ± 1.0 ^a µM

-- ask Give the measured HepG2 cytotoxicity TC50 Glucose of Cc1ccc(OCC(=O)Nc2ccc(N3CCCCC3)c(Cl)c2)cc1 .
-- reply >100 ^b µM

-- ask Give the measured HepG2 cytotoxicity TC50 Glucose of COc1ccc(CNC(=O)c2c(C)nc3ccccn23)cc1 .
-- reply 76 ± 12 ^c µM

-- ask Give the measured HepG2 cytotoxicity TC50 Glucose of Clc1c(-c2ccccc2)nc2ccccn12 .
-- reply >100 ^b µM

-- ask Give the measured HepG2 cytotoxicity TC50 Glucose of OCc1cn(-c2ccccc2)nc1-c1ccc(Br)cc1 .
-- reply 34 ± 0 ^c µM

-- ask Give the measured HepG2 cytotoxicity TC50 Glucose of Nc1c(C(=O)N2CCCC2)sc2nc(-c3ccccc3)ccc12 .
-- reply 82 ± 25 ^d µM
